Measured values drawn from patent US20120172293A1 for this set.

# experimental system: human Y2 receptor (human) (UniProt P49146)
# Sequence (P49146 whole entry): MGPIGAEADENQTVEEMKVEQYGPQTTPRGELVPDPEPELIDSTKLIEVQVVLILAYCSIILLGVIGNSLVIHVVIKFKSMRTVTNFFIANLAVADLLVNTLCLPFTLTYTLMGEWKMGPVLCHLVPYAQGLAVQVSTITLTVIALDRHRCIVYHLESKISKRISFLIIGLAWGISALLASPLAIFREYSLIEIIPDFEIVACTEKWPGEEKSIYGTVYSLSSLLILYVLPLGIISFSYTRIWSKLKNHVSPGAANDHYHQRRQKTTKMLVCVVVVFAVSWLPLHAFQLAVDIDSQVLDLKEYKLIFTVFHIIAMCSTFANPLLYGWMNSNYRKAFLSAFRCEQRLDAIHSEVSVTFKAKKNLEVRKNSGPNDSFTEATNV
# measurement description: RBA: [125I]-PYY displacement, hY2R/CHO membranes
Non-standard residues stand in square brackets, D forms with d. *: point of attachment. Cha = N[C@@H](CC1CCCCC1)C(=O)O; Isobutyryl = CC(C)C(=O)*; Abu = CC[C@H](N)C(=O)O; Aib = CC(C)(N)C(=O)O; GABA = NCCCC(=O)O
endpoint name: IC50 Ratio (vs PYY(3-36))
Please respond with just the number, no unit label.

Ac-S[GABA]RH[Cha][Cha]NL[Aib]TRQR[Cha]-NH2 (SMILES CC(=O)N[C@@H](CO)C(=O)NCCCC(=O)N[C@@H](CCCNC(=N)N)C(=O)N[C@@H](Cc1c[nH]cn1)C(=O)N[C@@H](CC1CCCCC1)C(=O)N[C@@H](CC1CCCCC1)C(=O)N[C@@H](CC(N)=O)C(=O)N[C@@H](CC(C)C)C(=O)NC(C)(C)C(=O)N[C@H](C(=O)N[C@@H](CCCNC(=N)N)C(=O)N[C@@H](CCC(N)=O)C(=O)N[C@@H](CCCNC(=N)N)C(=O)N[C@@H](CC1CCCCC1)C(N)=O)[C@@H](C)O) [Ac-[GABA24, Cha27,28,36, Aib31]-PYY(23-36)] :: 5.8

--- query ---
query: Consider the binder Isobutyryl-R[Abu][Cha][Cha]NH[Aib]TRQR[Cha]-NH2 (SMILES CC[C@H](NC(=O)[C@H](CCCNC(=N)N)NC(=O)C(C)C)C(=O)N[C@@H](CC1CCCCC1)C(=O)N[C@@H](CC1CCCCC1)C(=O)N[C@@H](CC(N)=O)C(=O)N[C@@H](Cc1c[nH]cn1)C(=O)NC(C)(C)C(=O)N[C@H](C(=O)N[C@@H](CCCNC(=N)N)C(=O)N[C@@H](CCC(N)=O)C(=O)N[C@@H](CCCNC(=N)N)C(=O)N[C@@H](CC1CCCCC1)C(N)=O)[C@@H](C)O) [Isobutanoyl-[Abu26, Cha27,28,36, His30, Aib31]-PYY(25-36)] and give its measured IC50 Ratio (vs PYY(3-36)).
result: 22
